# maps each entry to its Kd
molecular target: DCAF1 WD40 domain (residues 1077-1390) (Homo sapiens); construct: DCAF1 WD40 domain (residues 1077-1390); assay: DCAF1 binding assay by SPR (Biacore 8K+), DCAF1-3 KD; conditions: 25 °C, read-out: DCAF1-3 SPR (KD)
Sequence (Q9Y4B6 1077-1390): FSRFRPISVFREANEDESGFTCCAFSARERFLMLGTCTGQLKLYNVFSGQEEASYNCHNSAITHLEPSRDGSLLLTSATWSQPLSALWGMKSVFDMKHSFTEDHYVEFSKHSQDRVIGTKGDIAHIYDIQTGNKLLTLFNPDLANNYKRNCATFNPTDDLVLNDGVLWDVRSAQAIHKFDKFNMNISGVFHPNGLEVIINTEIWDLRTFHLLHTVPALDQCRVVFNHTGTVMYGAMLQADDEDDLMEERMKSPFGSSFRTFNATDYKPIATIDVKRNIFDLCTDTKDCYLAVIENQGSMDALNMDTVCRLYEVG

Input line: Specify reported Kd for the compound shown: c1ccc2c(N3CCC[C@@H](Nc4cc(N5CCOCC5)ncn4)C3)cncc2c1 [I-391]
Output line: > 200 µM

Input line: Specify reported Kd for the compound shown: NC(=O)OCc1cc(F)cc(N2CCC[C@@H]3[C@H]2CCN3c2cc(N3CC4CC(C4)C3)ccn2)c1 [I-1036]
Output line: 10 to 100 µM

Input line: Specify reported Kd for the compound shown: NC(=O)C[C@H](NC(=O)C1=C(c2c(F)cccc2F)CNC1)c1cccc(Cl)c1 [I-586]
Output line: < 10 µM

Input line: Specify reported Kd for the compound shown: C=CC(=O)N1CCC(N(C)c2ccnc(N[C@@H]3CCCN(c4cccc(F)c4)C3)c2)CC1 [I-460]
Output line: 10 to 100 µM

====

# maps each entry to its pKd
molecular target: DCAF1 WD40 domain (residues 1077-1390) (Homo sapiens); construct: DCAF1 WD40 domain (residues 1077-1390); experiment: DCAF1 binding assay by SPR (Biacore 8K+), DCAF1-3 KD; conditions: 25 °C, read-out: DCAF1-3 SPR (KD)
pKd: −log10 of the molar value.

{"columns": ["compound", "pKd"],
 "data": [
  ["Fc1cccc(N2CCC[C@@H](Nc3nccc(N4CCNCC4)n3)C2)c1", "< 3.70"],
  ["Clc1cc(N2CCC[C@@H](Nc3cc(N4CCOCC4)ccn3)C2)nc(C2CC2)n1", "< 3.70"],
  ["NC(=O)C[C@H](NC(=O)c1cn[nH]c1-c1ccccc1F)c1ccncc1", "< 3.70"],
  ["COC(=O)c1cc(-c2cccc(N3CCC[C@@H](Nc4cc(N5CCOCC5)ccn4)C3)c2)on1", "< 3.70"],
  ["CC(C)c1cccc(-c2[nH]ncc2C(=O)N[C@@H](CC(N)=O)c2cccc(Cl)c2)c1F", "4.00 to 5.00"],
  ["COc1cc(N2CCC[C@@H](Nc3cc(N4CCOCC4)ccn3)C2)cnc1CO", "4.00 to 5.00"],
  ["O=C(N[C@H](c1cccc(Cl)c1)c1ccon1)c1c[nH]nc1-c1ccccc1F", "< 3.70"],
  ["COCCOCCOCC[C@@H]1CN(c2cc(N3CCCCC3)ccn2)[C@H]2CCCN(c3cccc(F)c3)[C@@H]12", "4.00 to 5.00"],
  ["N#Cc1cccc(N2CCC[C@@H](Nc3cc(N4CCOCC4)ccn3)C2)c1", "< 3.70"],
  ["c1cc(N2CCC[C@@H](Nc3nccc(N4CCOCC4)n3)C2)c2cccnc2c1", "3.70 to 4.00"]
]}

Input line: Specify reported pKd for the compound shown: `NC(=O)[C@H]1C[C@@H](Nc2cc(N3CCCCC3)ccn2)CN(c2cccc(F)c2)C1`
Output line: 4.00 to 5.00

Input line: Specify reported pKd for the compound shown: `COCCN(c1cc(N2CCCCC2)ccn1)[C@@H]1CCCN(c2cccc(F)c2)C1`
Output line: 4.00 to 5.00

Input line: Specify reported pKd for the compound shown: `CC(C)n1cc(C(=O)N[C@@H](CC(N)=O)c2cccc(Cl)c2)c(-c2ccccc2F)n1`
Output line: 4.00 to 5.00

Input line: Specify reported pKd for the compound shown: `O=c1[nH]cc(N2CCOCC2)cc1N[C@@H]1CCCN(c2cccc(F)c2)C1`
Output line: > 5.00

====

# maps each entry to its Kd
molecular target: DCAF1 WD40 domain (residues 1077-1390) (Homo sapiens); construct: DCAF1 WD40 domain (residues 1077-1390); assay: DCAF1 binding assay by SPR (Biacore 8K+), DCAF1-3 KD; conditions: 25 °C, read-out: DCAF1-3 SPR (KD)

{"columns": ["molecule", "Kd"],
 "data": [
  ["c1cc(N2CCC[C@@H](Nc3cc(N4CCOCC4)ncn3)C2)ccn1", "> 200 µM"],
  ["Cc1cc(Cl)cc(C)c1-c1c(C(=O)N[C@@H](CC(N)=O)c2cccc(Cl)c2)c[nH]c1C(=O)c1ccccc1", "< 10 µM"],
  ["COCCN(C)CC1CCN(c2ccnc(N3CC[C@@H]4[C@H]3CCCN4c3cccc(F)c3)c2)CC1", "10 to 100 µM"],
  ["C=CC(=O)N1CCc2[nH]nc(C(=O)N[C@@H](CC(N)=O)c3cccc(Cl)c3)c2C1", "> 200 µM"],
  ["COC(=O)Cc1ccnc(N2CCC[C@@H](Nc3cc(N4CCOCC4)ccn3)C2)c1", "10 to 100 µM"]
]}

Input line: Specify reported Kd for the molecule shown: O=C1CC(C(NC(=O)c2cn[nH]c2-c2ccccc2F)c2cccc(Cl)c2)CN1 (stereo not shown)
Output line: > 200 µM

Input line: Specify reported Kd for the molecule shown: `CN(c1cc(N2CCOCC2)ncn1)[C@@H]1CCCN(c2cccc(F)c2)C1`
Output line: > 200 µM

Input line: Specify reported Kd for the molecule shown: `Fc1cccc(N2CCC[C@@H](n3cnc4c(N5CCOCC5)ccnc43)C2)c1`
Output line: > 200 µM

Input line: Specify reported Kd for the molecule shown: `NC(=O)C[C@](NC(=O)c1c[nH]nc1-c1ccccc1F)(c1cccc(Cl)c1)C1CC1`
Output line: > 200 µM

Input line: Specify reported Kd for the molecule shown: C=CC(=O)N(C)C1CC(N(C)c2ccnc(N[C@@H]3CCCN(c4cccc(F)c4)C3)c2)C1 (stereo partly shown)
Output line: > 200 µM

Input line: Specify reported Kd for the molecule shown: `NCCNCc1cc(N[C@@H]2CCCN(c3cccc(F)c3)C2)cc(N2CCCCC2)c1`
Output line: 100 to 200 µM

Input line: Specify reported Kd for the molecule shown: `C[C@@]1(Nc2cc(N3CCOCC3)ccn2)CCCN(c2cccc(F)c2)C1`
Output line: > 200 µM

Input line: Specify reported Kd for the molecule shown: `NC(=O)C[C@H](NC(=O)c1c[nH]nc1-c1ccccn1)c1cccc(Cl)c1`
Output line: 10 to 100 µM

Input line: Specify reported Kd for the molecule shown: `Cc1cccc(N2CCC[C@H]3[C@@H]2CCN3c2cc(N3CC4CC(C4)C3)ccn2)c1`
Output line: 10 to 100 µM

====

target: DCAF1 WD40 domain (residues 1077-1390) (Homo sapiens); construct: DCAF1 WD40 domain (residues 1077-1390); assay: DCAF1 binding assay by SPR (Biacore 8K+), DCAF1-3 KD; conditions: 25 °C, read-out: DCAF1-3 SPR (KD)
readout type: Kd

Field: example entries. Status: answers known.
{"columns": ["molecule", "Kd"],
 "data": [
  ["NC(=O)C[C@H](NC(=O)c1cn[nH]c1-c1cccc(C(N)=O)c1)c1cccc(Cl)c1", "10 to 100 µM"],
  ["C=CC(=O)NCCC1CCN(c2ccnc(N3CC[C@@H]4[C@H]3CCCN4c3cccc(F)c3)c2)CC1", "> 200 µM"],
  ["CS(=O)(=O)CCc1ccc(F)c(-c2[nH]ncc2C(=O)N[C@@H](CC(N)=O)c2cccc(Cl)c2)c1", "> 200 µM"],
  ["Fc1cccc(N2CCCC(N(c3cc(N4CCOCC4)ccn3)C(F)(F)F)C2)c1 (centres unmarked)", "> 200 µM"],
  ["NCCCCCCCCCCCCCCC(=O)c1[nH]cc(C(=O)N[C@@H](CC(N)=O)c2cccc(Cl)c2)c1-c1ccccc1F", "> 200 µM"],
  ["Fc1cccc(N2CCC[C@@H](N(Cc3ccccc3)c3nccc(N4CCOCC4)n3)C2)c1", "> 200 µM"]
]}

Input line: Specify reported Kd for the molecule shown: `NCCc1ccc(N2CCC[C@@H](Nc3cc(N4CCOCC4)ccn3)C2)cc1`
Output line: > 200 µM

Input line: Specify reported Kd for the molecule shown: `NC(=O)C[C@H](NC(=O)c1cn[nH]c1-c1ccccc1F)c1ccc(Cl)cc1`
Output line: < 10 µM

Input line: Specify reported Kd for the molecule shown: `Nc1ccc(N[C@@H]2CCCN(c3cccc(F)c3)C2)cc1C1CCCCC1`
Output line: 10 to 100 µM

Input line: Specify reported Kd for the molecule shown: `N#Cc1ccccc1-c1[nH]ncc1C(=O)N[C@@H](CC(N)=O)c1cccc(Cl)c1`
Output line: < 10 µM

Input line: Specify reported Kd for the molecule shown: Fc1cccc(N2CCCC(N3CCc4c(N5CC6CC(C6)C5)ccnc43)C2)c1 (centres unmarked)
Output line: < 10 µM

Input line: Specify reported Kd for the molecule shown: `NC(=O)OCc1cccc(N2CCC[C@@H]3[C@H]2CCN3c2cc(N3CCCCC3)ccn2)c1`
Output line: 10 to 100 µM

Input line: Specify reported Kd for the molecule shown: `CCN(c1nccc(N2CCOCC2)n1)[C@@H]1CCCN(c2cccc(F)c2)C1`
Output line: > 200 µM
